B1: Caulobacter ParB omega fusion; a variant is named by its letters at X, in order, B8GW30 (parent)
chain: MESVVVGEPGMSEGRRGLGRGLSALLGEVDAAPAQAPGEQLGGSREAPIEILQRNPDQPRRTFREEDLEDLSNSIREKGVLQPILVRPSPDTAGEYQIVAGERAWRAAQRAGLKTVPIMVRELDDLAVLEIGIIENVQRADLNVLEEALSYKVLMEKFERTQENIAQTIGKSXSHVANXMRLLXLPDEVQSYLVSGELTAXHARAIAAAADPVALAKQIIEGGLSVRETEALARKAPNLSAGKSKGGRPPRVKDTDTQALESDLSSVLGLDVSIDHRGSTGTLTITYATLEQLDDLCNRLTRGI

Variants of: B1
method_notes: one-hybrid fitness for binding parS DNA (scaled: cognate 1, non-cognate 0); higher = stronger binding
experimental_context: with parS DNA site
Whole data set: some 81,000 sequences, median “one-hybrid fitness for binding parS DNA” near -0.17, cut for the highest 2% near 0.51. The sample holds the highest values, similar sequences and a random draw of the others, so the mix is not that of the screen.
Reported one-hybrid fitness for binding parS DNA by item:

Record excerpt, results attached:
>>> print(df.to_string())
   mutations  value
0       RETT  ≤ 0.2
1       RSWY  0.422
2       RHHD  ≤ 0.2
3       RKDH  0.231
4       MSLL  ≤ 0.2
5       RKDN  0.329

# query: one-hybrid fitness for binding parS DNA of entry QMIF
≤ 0.2

Numbers sourced from a collection of fitness landscapes (doi:10.1016/j.celrep.2020.107928).
